// size (nm) lookup, one value per entry
Assay: Lipid nanoparticle size and polydispersity by dynamic light scattering
Format: physicochemical
Details: LNP of lipid/DSPC/cholesterol/PEG-lipid 50:10:38.5:1.5 encapsulating hEPO mRNA
Experimental: Briefly, a cationic lipid provided herein, DSPC, cholesterol, and PEG-lipid were solubilized in ethanol at a molar ratio of 50:10:38.5:1.5, and mRNA were diluted in 10 to 50 mM citrate buffer, pH=4. […] Lipid nanoparticle size were determined by dynamic light scattering using a Malvern Zetasizer Nano ZS (Malvern UK) using a […] backscatter detection mode. […]
The answer is to be given in nm; state only the numeric part.

Please give the measured size (nm) for this molecule: CCCCCCCCC(CCCCCCCC)COC(=O)CCCCCN(C)C1CCC(N(CCO)CCCCCC(=O)OCC(CCCCCCCC)CCCCCCCC)CC1 (stereo not drawn)
81.36

Try this molecule next: `CCCCCCCCC(CCCCCCCC)CNC(=O)CCCCCN1CCC(N(CCO)CCCCC(COC(=O)CCCCCCC)COC(=O)CCCCCCC)CC1`
82.04

Another molecule: `CCCCCCCCCCCCCCN(CCCCCCCCCCCCCC)C(=O)CCCCCN(CCO)CCN(CCCCCC(=O)OCCCCCCCCCCC)C1CCCCC1`
81.46

* * *

assay: Encapsulation efficiency of lipid nanoparticles, Quant-it Ribogreen RNA assay; type: physicochemical; conditions: LNP of lipid/DSPC/cholesterol/PEG-lipid 50:10:38.5:1.5 encapsulating hEPO mRNA
Output YES for Encapsulation Efficiency not less than 90%; output NO otherwise.

Test whether the compound `CCCCCCCC(=O)OCC(CCCCN(CCO)CCCCN(CCCCC(COC(=O)CCCCCCC)COC(=O)CCCCCCC)C1CCCC1)COC(=O)CCCCCCC` records Encapsulation Efficiency of 90% or higher.
YES

* * *

experiment: Apparent pKa of LNP formulations, TNS fluorescence assay; type: physicochemical; settings: LNP cationic lipid/DSPC/cholesterol/DMG-PEG 50/10/38.5/1.5 mol %
Below, each entry is listed alongside its reported Apparent Pka.
// response body must contain only the number

{"COMPOUND": "CCCCCCCC(=O)OCC(CCCCN(CCC)CCCCN(CCO)CCCCC(COC(=O)CCCCCCC)COC(=O)CCCCCCC)COC(=O)CCCCCCC", "Apparent Pka": 7.098}
{"COMPOUND": "CCCCCCCCC(CCCCCCCC)COC(=O)CCCCCN(CCO)CCN(CCCCCC(=O)OCC(CCCCCCCC)CCCCCCCC)C1CCC1", "Apparent Pka": 6.176}
{"COMPOUND": "CCCCCCCCCCCOC(=O)CCCCCN(CCN(CCO)CCCCC(COC(=O)CCCCCCC)COC(=O)CCCCCCC)C1CCCCC1", "Apparent Pka": 6.316}
{"COMPOUND": "CCCCCCCCC(CCCCCCCC)COC(=O)CCCCCN(CCO)CCN(CCCCCC(=O)OCC(CCCCCCCC)CCCCCCCC)C1CC(OC)C1 (stereo not drawn)", "Apparent Pka": 5.980}

Can you look up the measured Apparent Pka of `CCCCCCCCC(CCCCCCCC)CNC(=O)CCCCCN(CCO)CCN(CCCCCC(=O)OCC(CCCCCCCC)CCCCCCCC)C1CCC1` for me?
6.724

Now the same for `CCCCCCCC(=O)OCC(CCCCN(CCO)CCN(CCCCC(COC(=O)CCCCCCC)COC(=O)CCCCCCC)C1CCC1)COC(=O)CCCCCCC`
6.489

Next compound: `CCCCCCCCCCCOC(=O)CCCCCN(CCN(CCO)CCCCCC(=O)OCC(CCCCCCCC)CCCCCCCC)C1CCC(F)(F)CC1`
6.153

Repeat with CCCCCCCCC(CCCCCC)CNC(=O)CCCCCN(CCOCCO)CCN(CCCCC(COC(=O)CCCCCCC)COC(=O)CCCCCCC)C1CCCCCCC1 (stereo not drawn)
6.691

// query: CCCCCCCCC(CCCCCC)CNC(=O)CCCCCN(CCCCN(CCO)CCCCC(COC(=O)CCCCCCC)COC(=O)CCCCCCC)C1CC1 (stereo not drawn)
6.925
